Tested on: Plasmodium berghei
EXPERIMENT: Screen against P. berghei liver stage (PbLuc), transformed with Luciferase, at 10uM
Assay type: functional, HepG2
PROTOCOL CONDITIONS: tested at 10 uM
The campaign covered roughly 69,000 compounds. About 8,600 (12%) showed an effect of 50% or more. The full list was thinned out, with strong results kept by preference.
PARAMETER MEASURED: INHIBITION

# COMPOUND, INHIBITION
data = [
    ("CCCn1cc(-c2ccnc(NC3CCCc4ccccc43)n2)c(C)n1 (configuration not stated)", "72.3%"),
    ("CCCn1cc(-c2ccnc(NC3CCc4ccccc43)n2)c(C)n1 (configuration not stated)", "82.2%"),
]

Qu. Tell me its INHIBITION given Cc1cc(C)c2cc(CNCCCN3CCOCC3)c(=O)[nH]c2c1 as the entry.
Ans. 3.91%

Qu. Let me know recorded INHIBITION for CCCn1ncc(-c2ccnc(NC3CC(C)(C)NC(C)(C)C3)n2)c1C , thanks.
Ans. 80.1%

###

System: Plasmodium berghei
EXPERIMENT: Screen against P. berghei liver stage (PbLuc), transformed with Luciferase, at 10uM
Assay type: functional, HepG2
PROTOCOL CONDITIONS: tested at 10 uM
Hit rate of the full screen: of about 69,000 compounds, about 8,600 (12%) showed an effect of 50% or more. The sample as a whole holds a higher share of strong results than the screen did.
One threshold, 30%, splits the recorded INHIBITION values: lower ones are True, equal or higher ones are False.

# COMPOUND, LABEL CLASS
rows = [
    ("NC(=O)CC1CCN(C(=O)NCc2ccccc2-n2cccn2)CC1", "False"),
]

Qu. Decide: INHIBITION of CC(C)Oc1ncccc1CNC(=O)N1CCCC1c1ccsc1 (configuration not stated) strictly below 30%?
Ans. False

Qu. Is INHIBITION of Cc1ncccc1Oc1cncc(C2CCCN2Cc2cncn2C)n1 (configuration not stated) strictly below 30%?
Ans. False

Qu. Below 30% on INHIBITION? Entry O=C(c1ccccc1)N1CC2(CCNC2)OCc2ccccc21 (configuration not stated)
Ans. True

Qu. Regarding NC(=O)C1CCN(C(=O)NCc2cccnc2OCC(F)(F)F)C1 (configuration not stated) , kindly confirm whether its INHIBITION is beneath 30%.
Ans. False

Qu. Would you kindly verify if INHIBITION of COc1ccc(Oc2cncc(C3CCCN3C(C)=O)n2)cc1 (configuration not stated) is strictly less than 30%?
Ans. True

Qu. Lab note: confirm whether the reported INHIBITION for this compound is below 30%, equality not counting. compound: CC(C)(C)c1cn(C2CCN(C(=O)c3cnccn3)CC2)nn1
Ans. False

###

Test system: Plasmodium berghei
EXPERIMENT: Screen against P. berghei liver stage (PbLuc), transformed with Luciferase, at 10uM
Type: functional, HepG2
PROTOCOL CONDITIONS: tested at 10 uM
In all, about 69,000 compounds went through this assay and about 8,600 (12%) showed an effect of 50% or more. The sample holds strong results, similar compounds and a random draw of the others, so the mix is not that of the screen.
PARAMETER MEASURED: INHIBITION (%)
Write the value in % as a bare number.

# MOLECULE, EXPERIMENTAL SYSTEM, OUTPUT UNIT, INHIBITION
rows = [
    ("O=C(Nc1cc(CSCCO)ccn1)c1ccc(Cl)o1", "Plasmodium berghei", "%", 38.3),
    ("CN(C(=O)COc1ccc(-c2noc(C3CCCO3)n2)cc1)C1CC1 (stereo not drawn)", "Plasmodium berghei", "%", -27.3),
    ("CCN1CCOCC2(CCCN(C(=O)c3cccc(O)c3)C2)C1 (stereo not drawn)", "Plasmodium berghei", "%", 26),
    ("COC(=O)c1ccc(C2SC(C)=Nc3c2c(=O)[nH]n3C2CCCC2)cc1 (stereo not drawn)", "Plasmodium berghei", "%", 76.3),
    ("CC(CCc1ccc(O)cc1)NC1CCN(S(C)(=O)=O)CC1 (stereo not drawn)", "Plasmodium berghei", "%", 55.5),
    ("CC1=Nc2c(c(=O)[nH]n2C2CCCCC2)C(c2ccc(C(=O)O)cc2)S1 (stereo not drawn)", "Plasmodium berghei", "%", 36.55),
]

Qu. Name the recorded INHIBITION of the item CCc1c(C(=O)O)nnn1-c1cccc(C)c1C in your answer.
Ans. 6.09

Qu. Annotate the molecule COCC(=O)Nc1ccccc1Sc1c(C)n[nH]c1C with its measured INHIBITION.
Ans. 60

Qu. Fill in reported INHIBITION for this entry: Cc1cnc(CN2CCN(c3ccc4nncn4n3)C(C)C2)cn1 (stereo not drawn)
Ans. 23.7

Qu. Note INHIBITION for the molecule shown: CC(=O)N1CCCC(Cc2cnc(-c3c(C)nn(C)c3C)cn2)C1 (stereo not drawn)
Ans. -10.4

Qu. Respond only with INHIBITION recorded for Cc1cnn(CC2CCCN2C(=O)c2ccc3c(c2)nnn3C)c1 (stereo not drawn)
Ans. 23.2

Qu. Please report the measured INHIBITION for CN(CCN1CCOCC1)C(=O)CCCc1ccccc1
Ans. -57.6

Qu. Please report INHIBITION for the following molecule: O=C(NCCCNC(=O)c1cccc(O)c1)Nc1ccc(Cl)cc1
Ans. 45.5

Qu. Annotate the molecule COc1ccnc(NC(=O)c2cscc2C)c1 with its measured INHIBITION.
Ans. -28.3

Qu. Please give measured INHIBITION of the following entry: Cc1cc(C2CCCN(C(=O)c3c(C)noc3C)C2)n[nH]1 (stereo not drawn)
Ans. -2.37

Qu. Consider the molecule Cc1n[nH]c(C)c1Sc1ccccc1NC(=O)N1CCOCC1 and give its recorded INHIBITION.
Ans. 30.3

Qu. In one line, give reported INHIBITION of the entry Cc1n[nH]c2nc(-c3cccc(Cl)c3)cc(C(=O)O)c12 .
Ans. -1.99
